Data origin: PubChem BioAssay (NCATS)

Listed next: entries and their corresponding cell viability, % of control (lower = more cytotoxic).
- assayText: High-throughput drug toxicity screening in the BPDCN cell line Gen2.2 (AID 1224824);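 note: cells exposed to compounds for 48 h before reading; 100% = DMSO and 0% = bortezomib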
- conditionSummary: Gen2.2 BPDCN cells; at 45.8 µM (top of the series) unless noted
valueType: cell viability, % of control (lower = more cytotoxic) (%)

{"compound": "Cn1cc(C=CC(=O)c2cccc(F)c2)cc1C=CC(=O)NO", "reportedValue": 7.04}
{"compound": "C=C1C(=O)O[C@H]2[C@@H]1CCC(C)=CCC[C@@]1(C)O[C@@H]21", "reportedValue": 2.53}
{"compound": "COc1cc2c(cc1O)CCC1C2CC[C@@]2(C)C1CC[C@@H]2O (some centres undefined)", "reportedValue": 95.2}
{"compound": "CCCNS(=O)(=O)Nc1ncnc(OCCOc2ncc(Br)cn2)c1-c1ccc(Br)cc1", "reportedValue": 180}
{"compound": "COc1cc(C(=O)NC2CCN(C)CC2)ccc1Nc1ncc2c(n1)N(C1CCCC1)CCC(=O)N2C(C)C", "reportedValue": 6.24}
{"compound": "COc1ccc(C=Cc2cc(OC)c(OC)c(OC)c2)cc1NC(=O)[C@H](N)CO", "reportedValue": 6.82}
{"compound": "CO[C@@H]1[C@@H](O)[C@H](O)[C@@H](n2c3c(Cl)cccc3c3c4c(c5c6cccc(Cl)c6[nH]c5c32)C(=O)NC4=O)O[C@@H]1CO", "reportedValue": 12.9}
{"compound": "Cc1ncc(-c2ccnc(Nc3ccc(S(C)(=O)=O)cc3)n2)n1C(C)C", "reportedValue": 6.27}
{"compound": "O=C1c2c(O)cccc2[C@@H]([C@@H]2O[C@H](CO)[C@@H](O)[C@H](O)[C@H]2O)c2cc(CO)cc(O)c21", "reportedValue": 185}

###

- assayText: qHTS for identification of novel therapeutic agents for treatment of microphthalmiaassociated transcription factor (MiT) renal cell carcinoma (RCC) (AID 1963991);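 note: curves scaled with 100% = DMSO viability and 0% = empty wells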
- conditionSummary: TFE3-RCC UOK109 viability, CellTiter-Glo, 48 h; measured here: UOK109 Z-AUC; stronger effect = lower value
Records with an inconclusive call do not appear.
Param label: returns 1 (yes) when z-score < 0.1, returns 0 (no) otherwise, including exact equality.

{"compound": "OCCN1C[C@H](O)[C@@H](O)[C@H](O)[C@@H]1CO", "className": "0 (no)"}
{"compound": "COC(=O)[C@H](CCCN=C(N)N)NS(=O)(=O)c1ccc(C)cc1", "className": "0 (no)"}
{"compound": "Cc1cnc(Nc2ccc(CN3CCOCC3)cc2)nc1Nc1cccc(S(=O)(=O)NC(C)(C)C)c1", "className": "1 (yes)"}
{"compound": "C[C@@]12C[C@@]3(O)O[C@@H](O1)[C@]1(COC(=O)c4ccccc4)[C@@H]3C[C@@]12O[C@@H]1O[C@H](CO)[C@@H](O)[C@H](O)[C@@H]1O", "className": "1 (yes)"}
{"compound": "COc1cccc2c1C(=O)c1c(O)c3c(c(O)c1C2=O)C[C@@](O)(C(C)=O)C[C@H]3O[C@H]1C[C@H](N)[C@H](O)[C@H](C)O1", "className": "1 (yes)"}
{"compound": "CC(=O)OCC(=O)[C@@]1(O)CC[C@H]2[C@@H]3CCC4=CC(=O)CC[C@]4(C)[C@@H]3C(=O)C[C@@]21C", "className": "1 (yes)"}
{"compound": "CCCCCCCCCCCCCCCC(=O)OC[C@@H](NC(=O)C(Cl)Cl)[C@H](O)c1ccc([N+](=O)[O-])cc1", "className": "0 (no)"}
{"compound": "COC1=C(OC)C(=O)C(CC=C(C)CCC=C(C)CCC=C(C)CCC=C(C)CCC=C(C)CCC=C(C)CCC=C(C)CCC=C(C)CCC=C(C)CCC=C(C)C)=C(C)C1=O", "className": "0 (no)"}
{"compound": "C=C1C[C@@]2(O)O[C@@]3(C[C@H]2C(C)C)[C@H](C)CC[C@H]13", "className": "0 (no)"}
{"compound": "Cc1cncc2cccc(S(=O)(=O)N3CCCN(C(=O)CN)C[C@@H]3C)c12", "className": "0 (no)"}
{"compound": "N#CNC(=NCCCCCCOc1ccc(Cl)cc1)Nc1ccncc1", "className": "1 (yes)"}
{"compound": "N#CC(=C(O)c1ccc(Cl)cc1Cl)c1nc2cc(Cl)ccc2c(=O)[nH]1", "className": "0 (no)"}
{"compound": "CC1(C)[C@H](O[C@H]2O[C@H](C(=O)O)[C@@H](O)[C@H](O)[C@H]2O[C@@H]2O[C@H](C(=O)O)[C@@H](O)[C@H](O)[C@H]2O)CC[C@@]2(C)[C@H]1CC[C@]1(C)[C@H]2C(=O)C=C2[C@H]3C[C@@](C)(C(=O)O)CC[C@]3(C)CC[C@]21C", "className": "0 (no)"}
{"compound": "O=C1c2c(O)cccc2[C@@H]([C@@H]2O[C@H](CO)[C@@H](O)[C@H](O)[C@H]2O)c2cc(CO)cc(O)c21", "className": "0 (no)"}
{"compound": "O=C(C=CC=Cc1ccc2c(c1)OCO2)N1CCCCC1", "className": "0 (no)"}
{"compound": "NC[C@H]1O[C@H](O[C@H]2[C@@H](O)[C@@H](O[C@H]3O[C@H](CO)[C@@H](O)[C@H](N)[C@@H]3O)[C@H](N)C[C@@H]2N)[C@H](N)C[C@H]1O", "className": "0 (no)"}
{"compound": "C#CCC(Cc1cnc2nc(N)nc(N)c2n1)c1ccc(C(=O)N[C@@H](CCC(=O)O)C(=O)O)cc1 (stereo partly drawn)", "className": "1 (yes)"}
{"compound": "Cc1ccc(O)c(C(CCN(C(C)C)C(C)C)c2ccccc2)c1 (stereo not drawn)", "className": "0 (no)"}
{"compound": "C[C@]12CCC(=O)C=C1[C@@H]1CC1[C@H]1[C@H]3[C@@H]4C[C@H]4[C@@]4(CCC(=O)O4)[C@@]3(C)CC[C@H]12 (stereo partly drawn)", "className": "0 (no)"}
{"compound": "COc1ccc(S(=O)(=O)Nc2cccnc2Nc2ccc(O)cc2)cc1", "className": "1 (yes)"}
{"compound": "Cc1[nH]c(C=C2C(=O)Nc3ccccc32)c(C)c1CCC(=O)O", "className": "1 (yes)"}
{"compound": "C[C@@H]1[C@H](C)CC[C@]2(C(=O)O)CC[C@]3(C)C(=CC[C@@H]4[C@@]5(C)C[C@@H](O)[C@H](O)[C@@](C)(CO)[C@H]5CC[C@]43C)[C@@H]12", "className": "0 (no)"}
{"compound": "O=C1NC(=O)C(=Cc2ccc3nccc(-c4ccncc4)c3c2)S1", "className": "1 (yes)"}
{"compound": "C[N+]1(C)[C@@H]2C[C@@H](OC(=O)C(O)(c3cccs3)c3cccs3)C[C@H]1[C@@H]1O[C@@H]12", "className": "0 (no)"}
{"compound": "N[C@H]1CN(c2c(F)cc3c(=O)c(C(=O)O)cn(C4C[C@@H]4F)c3c2Cl)CC12CC2 (stereo partly drawn)", "className": "0 (no)"}
{"compound": "C[C@H]1COc2c(N3CCN(C)CC3)c(F)cc3c(=O)c(C(=O)O)cn1c23", "className": "0 (no)"}
{"compound": "COc1ccc(C=Cc2cc(OC)c(OC)c(OC)c2)cc1NC(=O)[C@H](N)CO", "className": "1 (yes)"}
{"compound": "COC[C@H](NC(=O)c1cnc(C)s1)C(=O)N[C@@H](COC)C(=O)N[C@@H](Cc1ccccc1)C(=O)[C@@]1(C)CO1", "className": "1 (yes)"}
{"compound": "C[C@H]1C[C@H]2[C@@H]3CCC4=CC(=O)C=C[C@]4(C)[C@@H]3C(=O)C[C@]2(C)[C@@]1(O)C(=O)CO", "className": "0 (no)"}
{"compound": "CCCCCCCCCCCC(CC1OC(=O)C1CCCCCC)OC(=O)C(CC(C)C)NC=O (stereo not drawn)", "className": "0 (no)"}
{"compound": "C#C[C@]1(O)CC[C@@H]2[C@@H]3CCC4=CC(=O)CC[C@@H]4[C@H]3CC[C@@]21CC", "className": "0 (no)"}
{"compound": "Cn1cc(C[C@@H](N)C(=O)O)c2ccccc21", "className": "0 (no)"}
{"compound": "CC(Oc1ccc(O)cc1)(P(=O)(O)O)P(=O)(O)O", "className": "0 (no)"}

###

- assayText: Quantitative High-Throughput drug screen in 47 multiple myeloma cell lines against the NCATS MIPE library collection: EJM_DSMZ cell viability assay (AID 1918926; note: nearly all actives have a fitted effect of over 30% in size; note: potency is the fitted concentration of half-maximal effect)
- conditionSummary: EJM myeloma cell viability, CellTiter-Glo ATP, 48 h; series mostly up to 45.8 µM
Inconclusive results are not listed. Active and inactive are the calls of the source. Calls come from the whole dose curve; as a rule, active = well fitted cell-killing curve with a large enough effect; inconclusive = small, poorly fitted or top-dose-only effect, or effect the other way; inactive = no such curve, though single readings can be large or run the other way.

{"compound": "C[C@H](NCc1ccc(OCc2cccc(F)c2)cc1)C(N)=O", "Potency": "9.35 µM (active)"}
{"compound": "CN1CCc2c(c3ccccc3n2Cc2ccc(C(=O)NO)cc2)C1", "Potency": "18.7 µM (active)"}
{"compound": "OCC(O)C(O)C(O)CO (stereo unspecified)", "Potency": "inactive"}
{"compound": "CN[C@H]1[C@@H](O)[C@@H]2O[C@@H]3O[C@H](C)CC(=O)[C@]3(O)O[C@@H]2[C@@H](NC)[C@H]1O", "Potency": "0.166 µM (active)"}
{"compound": "COc1cc2c(Nc3ccc(Cl)c(Cl)c3F)ncnc2cc1OCC1C[C@@H]2CN(C)C[C@H]2C1", "Potency": "2.96 µM (active)"}
{"compound": "O=C(O)CCCCC(CCSCc1ccccc1)SCc1ccccc1 (stereo unspecified)", "Potency": "inactive"}
{"compound": "CC(C=CC=C(C)C=CC1=C(C)CCCC1(C)C)=CC=CC=C(C)C=CC=C(C)C=CC1=C(C)CCCC1(C)C", "Potency": "6.62 µM (active)"}
{"compound": "C[C@](Cc1c[nH]c2ccccc12)(NC(=O)OC1C2CC3CC(C2)CC1C3)C(=O)NC[C@H](NC(=O)CCC(=O)O)c1ccccc1 (stereo partly specified)", "Potency": "inactive"}
{"compound": "CC(Oc1ccc(O)cc1)(P(=O)(O)O)P(=O)(O)O", "Potency": "inactive"}
{"compound": "CC(C=CC(=O)NO)=C[C@@H](C)C(=O)c1ccc(N(C)C)cc1", "Potency": "0.469 µM (active)"}
{"compound": "COc1cc(OC)cc(-c2ccc3ncc4ccc(=O)n(-c5ccc(N6CCNCC6)c(C(F)(F)F)c5)c4c3c2)c1", "Potency": "5.9 µM (active)"}
{"compound": "COc1ccc(C(C)=O)c(O)c1", "Potency": "inactive"}
{"compound": "Cc1ccc2nc(NCCN)c3ncc(C)n3c2c1", "Potency": "1.48 µM (active)"}
{"compound": "O=C(O)C[C@H](O)C[C@H](O)C=Cc1c(C2CC2)nc2ccccc2c1-c1ccc(F)cc1", "Potency": "inactive"}
{"compound": "NC1=N[C@H]2[C@H](CS[C@H]2CCCCC(=O)O)N1", "Potency": "inactive"}
{"compound": "C[C@H](NC(=O)[C@@H](O)c1cc(F)cc(F)c1)C(=O)N[C@@H]1C(=O)N(C)c2ccccc2-c2ccccc21", "Potency": "inactive"}
{"compound": "N#CC(=C(O)c1ccc(Cl)cc1Cl)c1nc2cc(Cl)ccc2c(=O)[nH]1", "Potency": "inactive"}
{"compound": "Cc1cc(C(=O)NOCCO)c(Nc2ccc(I)cc2F)n(C)c1=O", "Potency": "inactive"}
{"compound": "O=C1NC(=O)[C@@H](c2cn3c4c(cccc24)CCC3)[C@H]1c1c[nH]c2ccccc12", "Potency": "20.9 µM (active)"}
{"compound": "CC(C)C[C@H](NC(=O)[C@@H](NC(=O)c1cccc(-c2ccccc2)n1)[C@@H](C)O)B(O)O", "Potency": "0.0469 µM (active)"}
{"compound": "Cc1coc2c1C(=O)C(=O)c1c-2ccc2c(C)cccc12", "Potency": "16.6 µM (active)"}
